Measured GI50 by item
Tested on: KM12
Experiment: NCI tumour cell line growth inhibition, 48 h
The source made the active and inactive calls. Cut-off read from the data, not from the text of the source: active = GI50 up to about 1.1 µM and inactive = higher.
MEASURE: GI50

1. O=C1NC(Nc2ccccc2)=NC(C(F)(F)F)(C(F)(F)F)N1	41.6 µM (inactive)
2. O=S1(=O)OCCOS(=O)(=O)C1(I)I	18.9 µM (inactive)
3. O=C(N/N=C(COc1ccc([N+](=O)[O-])cc1)\N=C\c1ccncc1)c1ccncc1	> 100 µM (inactive)
4. Cc1nc(Nc2ccccc2)sc1C(=O)CC(=O)C(=O)NC12CC3CC(CC(C3)C1)C2	> 100 µM (inactive)
5. O=C(Nc1nc2ccccc2s1)c1cc([N+](=O)[O-])ccc1Cl	3.29 µM (inactive)
6. COC(=O)Cc1cccc2c1CCC2=O	> 100 µM (inactive)
7. Cc1ccc(NCCO)cc1	> 100 µM (inactive)
8. CC1(O)CC2(O)C=CC3=C(C(=O)c4cccc(O)c4C3=O)C2(O)C(=O)C1O (stereo unspecified)	8 µM (inactive)
9. Cn1cc2ccccc2c1-c1nc(N)nc(F)n1	> 100 µM (inactive)
10. CSc1nc(-c2ccc(Cl)cc2)c(C#N)c(=O)n1C1OC(COC(C)=O)C(OC(C)=O)C(OC(C)=O)C1OC(C)=O (stereo unspecified)	> 100 µM (inactive)
11. O=C(O)c1ccc2c(O)c(O)ccc2c1	16.4 µM (inactive)

Values from ChEMBL document CHEMBL1201862
